The reported measurements were obtained from patent US20070117743A1.

- System: SK-BR-3
- method_description: SRB colorimetric assay of cell growth and viability, SK-BR-3
- Assay type: cell-based, human
- condition_parameters: 48 hours exposure
Where a SMILES comes first, the peptide text is derived from it. Bridges are numbered along the chain shown (N, C = ends). [ ]: non-standard residue; d: D form. The star is where a group is joined. d(aIle) = CC[C@H](C)[C@@H](N)C(=O)O; d(aThr) = C[C@@H](O)[C@@H](N)C(=O)O; Hexanoyl(5-Me) = CC(C)CCCC(=O)*; Orn = NCCC[C@H](N)C(=O)O; Dhb = C/C=C(\N)C(=O)O

- compound: "C/C=C1\\NC(=O)[C@H](Cc2ccccc2)NC(=O)[C@@H](C(C)C)NC(=O)[C@@H]([C@@H](C)CC)NC(=O)[C@H](NC(=O)[C@H](NC(=O)[C@H](CCCN)NC(=O)[C@H]2CCCN2C(=O)[C@H](NC(=O)[C@H](Cc2ccccc2)NC(=O)[C@@H](NC(=O)[C@H](NC(=O)CCCC(C)C)C(C)C)[C@@H](C)O)C(C)C)[C@@H](C)CC)[C@@H](C)OC(=O)[C@H](C(C)C)NC1=O [Compound 43, [Phe^11]-KF] ({Hexanoyl(5-Me)}-[dV]TF[dV][dP][Orn][d(aIle)][d(aThr)][d(aIle)][dV]F[Dhb]V; ester 8-C)"
  measured_on: "SK-BR-3"
  LC50 [nM]: 634
